IC50 values for the molecules below.
target-or-test-system: full-length beta-Catenin (Uniprot ID P35222) (Homo sapiens, UniProt P35222)
Construct: 10 nM full-length beta-Catenin (Uniprot ID P35222)
Sequence (P35222 whole entry): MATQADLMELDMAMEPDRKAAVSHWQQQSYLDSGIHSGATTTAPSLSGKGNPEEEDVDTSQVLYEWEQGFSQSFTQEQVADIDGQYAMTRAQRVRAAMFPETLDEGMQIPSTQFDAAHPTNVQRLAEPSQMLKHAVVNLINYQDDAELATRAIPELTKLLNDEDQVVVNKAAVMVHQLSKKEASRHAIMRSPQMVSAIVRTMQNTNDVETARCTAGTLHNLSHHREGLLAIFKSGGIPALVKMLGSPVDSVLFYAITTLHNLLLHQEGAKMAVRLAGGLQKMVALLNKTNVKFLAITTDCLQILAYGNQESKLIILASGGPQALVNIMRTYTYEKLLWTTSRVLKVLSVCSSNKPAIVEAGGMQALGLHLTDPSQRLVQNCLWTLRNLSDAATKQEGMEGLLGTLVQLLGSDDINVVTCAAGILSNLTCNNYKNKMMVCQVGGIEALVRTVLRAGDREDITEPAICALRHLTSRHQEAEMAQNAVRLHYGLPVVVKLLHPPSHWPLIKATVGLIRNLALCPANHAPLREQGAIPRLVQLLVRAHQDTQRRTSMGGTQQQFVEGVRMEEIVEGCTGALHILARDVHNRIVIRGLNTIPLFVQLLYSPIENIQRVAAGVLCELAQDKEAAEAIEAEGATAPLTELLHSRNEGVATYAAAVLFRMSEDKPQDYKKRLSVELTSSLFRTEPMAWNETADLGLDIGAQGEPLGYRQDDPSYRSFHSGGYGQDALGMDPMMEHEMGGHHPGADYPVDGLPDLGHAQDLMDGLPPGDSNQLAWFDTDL
test: Fluorescence polarization IC50 (beta-catenin / 5FAM-TCF4 10-53 competition)
Format: binding
condition-summary: fluorescence polarization; read-out: beta-Catenin FP IC50
// note: answer is a bare numeric in nM

Query string: Please tell me: IC50 of CC(=O)N1CCC[C@]12CC=CCCCC1(CCCC=CCCCOC(=O)N3CC[C@@](C(=O)N[C@@H](Cc4ccccc4Cl)C(=O)N[C@@H](Cc4csc5ccccc45)C(=O)N[C@@H](CCC(N)=O)C(N)=O)(C3)NC(=O)[C@H](CC(N)=O)NC(=O)[C@H](Cc3ccccc3)NC(=O)[C@H](C)NC(=O)[C@H](C)NC(=O)[C@H](CN(CCCC(F)(F)F)CC(=O)O)NC(=O)[C@H](CC(=O)O)NC1=O)NC(=O)[C@H](CC(C)(C)C)NC(=O)[C@H](CC(=O)O)NC2=O (some centres unmarked) , system full-length beta-Catenin (Uniprot ID P35222) (Homo sapiens, UniProt P35222)?
Result string: 9

Query string: Please tell me: IC50 of CC(=O)N1CCC[C@]12CC=CCCCC1(CCCC=CCCCCCC[C@@](C)(C(=O)N[C@@H](Cc3ccccc3)C(=O)N[C@@H](Cc3csc4ccccc34)C(=O)N[C@@H](CCC(N)=O)C(N)=O)NC(=O)[C@H](CCO)NC(=O)[C@H](Cc3ccccc3)NC(=O)[C@H](C)NC(=O)[C@H](C)NC(=O)[C@H](CCC(=O)O)NC(=O)[C@H](CC(=O)O)NC1=O)NC(=O)[C@H](Cc1ccccc1)NC(=O)[C@H](CC(=O)O)NC2=O (some centres unmarked) , system full-length beta-Catenin (Uniprot ID P35222) (Homo sapiens, UniProt P35222)?
Result string: 16

Query string: Please tell me: IC50 of CC(=O)N1CCC[C@]12CC=CCCCC1(CCCC=CCCCCCC[C@@](C)(C(=O)N[C@@H](Cc3ccsc3)C(=O)N[C@@H](Cc3csc4ccccc34)C(=O)N[C@@H](CCC(N)=O)C(N)=O)NC(=O)[C@H](CC(N)=O)NC(=O)[C@H](Cc3ccccc3)NC(=O)[C@H](C)NC(=O)[C@H](C)NC(=O)[C@H](CC(=O)O)NC(=O)[C@H](CC(=O)O)NC1=O)NC(=O)[C@H](CC(C)C)NC(=O)[C@H](CC(=O)O)NC2=O (some centres unmarked) [I-681] , system full-length beta-Catenin (Uniprot ID P35222) (Homo sapiens, UniProt P35222)?
Result string: 12

Query string: Please tell me: IC50 of CC(=O)N1CCC[C@]12CC=CCCCC1(CCCC=CCCCOC(=O)N3CC[C@@](C(=O)N[C@@H](Cc4ccccc4Cl)C(=O)N[C@@H](Cc4csc5ccccc45)C(=O)N[C@H](C(N)=O)[C@@H](C)O)(C3)NC(=O)[C@H](CCCCNC(C)C)NC(=O)[C@H](Cc3ccccc3)NC(=O)[C@H](C)NC(=O)[C@H](C)NC(=O)[C@H](CC(=O)O)NC(=O)[C@H](CC(=O)O)NC1=O)NC(=O)[C@H](CC(C)(C)C)NC(=O)[C@H](CC(=O)O)NC2=O (some centres unmarked) , system full-length beta-Catenin (Uniprot ID P35222) (Homo sapiens, UniProt P35222)?
Result string: 12

// moving on: another record for IC50
Query string: Please tell me: IC50 of CC(=O)N1CCC[C@]12CC=CCCCC1(CCCC=CCCCOC(=O)N3CC[C@@](C(=O)N[C@@H](Cc4ccsc4)C(=O)N[C@@H](Cc4csc5ccccc45)C(=O)N[C@@H](CC(C)C)C(N)=O)(C3)NC(=O)[C@H](CC(C)C)NC(=O)[C@H](Cc3ccccc3)NC(=O)[C@H](C)NC(=O)[C@H](C)NC(=O)[C@H](CC(=O)O)NC(=O)[C@H](CC(=O)O)NC1=O)NC(=O)[C@H](CC(C)(C)C)NC(=O)[C@H](CC(=O)O)NC2=O (some centres unmarked) , system full-length beta-Catenin (Uniprot ID P35222) (Homo sapiens, UniProt P35222)?
Result string: 74

###

target-or-test-system: full-length beta-Catenin (Uniprot ID P35222) (Homo sapiens)
Construct: 10 nM full-length beta-Catenin (Uniprot ID P35222)
test: Fluorescence polarization IC50 (beta-catenin / 5FAM-TCF4 10-53 competition)
Assay type: binding
condition-summary: fluorescence polarization; read-out: beta-Catenin FP IC50
pIC50 values for the compounds below.
Lab note: report pIC50 as minus log10 of the concentration in molar units, number only.

Consider the following illustrative entries.
Query string: What does the data say about its pIC50? Entry: CC(=O)N1CCC[C@]12CC=CCCCC1(CCCC=CCCCOC(=O)N3CC[C@@](C(=O)N[C@@H](Cc4ccsc4)C(=O)N[C@@H](Cc4csc5ccccc45)C(=O)N[C@@H](CCC(N)=O)C(N)=O)(C3)NC(=O)[C@H](CC(N)=O)NC(=O)[C@H](Cc3ccc(O)cc3)NC(=O)[C@H](C)NC(=O)[C@H](C)NC(=O)[C@H]([C@@H](C)O)NC(=O)[C@H](CC(N)=O)NC1=O)NC(=O)[C@H](CC(C)(C)C)NC(=O)[C@H](CC(=O)O)NC2=O (some centres unmarked) [I-2016]
Result string: 6.15

Query string: What does the data say about its pIC50? Entry: CC[C@H](C)[C@@H]1NC(=O)[C@H](CC(=O)O)NC(=O)[C@]2(CC=CCCCC3(CCCC=CCCCCCC[C@@](C)(C(=O)N[C@@H](Cc4ccccc4)C(=O)N[C@@H](Cc4csc5ccccc45)C(=O)N[C@@H](CCC(N)=O)C(N)=O)NC(=O)[C@H](CCC(N)=O)NC(=O)[C@H](Cc4ccccc4)NC(=O)[C@H](C)NC(=O)[C@H](C)NC(=O)[C@H](CCC(=O)O)NC(=O)[C@H](CC(=O)O)NC3=O)NC1=O)CCCN2C(=O)c1ccccn1 (some centres unmarked) [I-599]
Result string: 6.86

---
Query string: What does the data say about its pIC50? Entry: CC(=O)N1CCC[C@]12CC=CCCCC1(CCCC=CCCCOC(=O)N3CC[C@@](C(=O)N[C@@H](Cc4ccsc4)C(=O)N[C@@H](Cc4csc5ccccc45)C(=O)N[C@@H](CCC(N)=O)C(N)=O)(C3)NC(=O)[C@H](CC(N)=O)NC(=O)[C@H](Cc3ccccc3)NC(=O)[C@H](C)NC(=O)[C@H](C)NC(=O)[C@H](CN(CCCC(F)(F)F)CC(=O)O)NC(=O)[C@H](CC(=O)O)NC1=O)NC(=O)[C@H](CC(C)(C)C)NC(=O)[C@H](CC(=O)O)NC2=O (some centres unmarked) [I-1634]
Result string: 8.05

Query string: What does the data say about its pIC50? Entry: CC(=O)N1CCC[C@]12CC=CCCCC1(CCCC=CCCCOC(=O)N3CC[C@@](C(=O)N[C@@H](Cc4ccccc4)C(=O)N[C@@H](Cc4csc5ccccc45)C(=O)N[C@@H](C)C(N)=O)(C3)NC(=O)[C@H](CC(N)=O)NC(=O)[C@H](Cc3ccccc3)NC(=O)[C@H](C)NC(=O)[C@H](Cc3c[nH]cn3)NC(=O)[C@H](CCC(N)=O)NC(=O)[C@H](CC(=O)O)NC1=O)NC(=O)[C@H](CC1CCCCC1)NC(=O)[C@H](CC(N)=O)NC2=O (some centres unmarked) [I-2069]
Result string: 6.59

Query string: What does the data say about its pIC50? Entry: CC(=O)N1CCC[C@]12CC=CCCCC1(CCCC=CCCCOC(=O)N3CC[C@@](C(=O)N[C@@H](Cc4ccccc4C(F)(F)F)C(=O)N[C@@H](Cc4csc5c(Cl)cccc45)C(=O)N[C@@H](C)C(N)=O)(C3)NC(=O)[C@H](CC(C)C)NC(=O)[C@H](Cc3ccccc3)NC(=O)[C@H](C)NC(=O)[C@H](CCC(N)=O)NC(=O)[C@H](Cc3cccc(C(=O)O)c3)NC(=O)[C@H](CC(=O)O)NC1=O)NC(=O)[C@H](CC(C)(C)C)NC(=O)[C@H](CC(=O)O)NC2=O (some centres unmarked) [I-2487]
Result string: 7.44

###

target-or-test-system: full-length beta-Catenin (Uniprot ID P35222) (Homo sapiens, UniProt P35222)
Construct: 10 nM full-length beta-Catenin (Uniprot ID P35222)
test: Fluorescence polarization IC50 (beta-catenin / 5FAM-TCF4 10-53 competition)
Type: binding
condition-summary: fluorescence polarization; read-out: beta-Catenin FP IC50
reported-property: IC50 (nM)
// note: answer is a bare numeric in nM

Query string: What does the data say about its IC50? Entry: C[C@@H]1NC(=O)[C@H](C)NC(=O)[C@H](CC(=O)O)NC(=O)[C@H](CC(=O)O)NC(=O)C2(CCCC=CCCCOC(=O)N3CC[C@@](C(=O)N[C@@H](Cc4ccccc4Cl)C(=O)N[C@@H](Cc4csc5ccccc45)C(=O)N[C@@H](C(N)=O)[C@H](C)O)(C3)NC(=O)[C@H](CC(N)=O)NC(=O)[C@H](Cc3ccccc3)NC1=O)CCCC=CC[C@]1(CCCN1S(C)(=O)=O)C(=O)N[C@@H](CC(=O)O)C(=O)N[C@@H](CC(C)(C)C)C(=O)N2 (some centres unmarked)
Result string: 17

// moving on: another record for IC50
Query string: What does the data say about its IC50? Entry: CC(=O)N1CCC[C@]12CC=CCCCC1(CCCC=CCCCOC(=O)N3CC[C@@](C(=O)N[C@@H](Cc4ccsc4)C(=O)N[C@@H](Cc4csc5ccccc45)C(=O)N[C@@H](CC(C)C)C(N)=O)(C3)NC(=O)[C@H](CC(N)=O)NC(=O)[C@H](Cc3ccccc3)NC(=O)[C@H](C)NC(=O)C(C)(C)NC(=O)[C@H]([C@@H](C)O)NC(=O)[C@H](CC(N)=O)NC1=O)NC(=O)[C@H](CC(C)(C)C)NC(=O)[C@H](CC(=O)O)NC2=O (some centres unmarked)
Result string: 627

This collection of values is drawn from patent US20240116985A1.
